The entries below are paired with their reported pest or weed control at 50 µg/cm2.
# System: BAW (Spodoptera exigua)
# TEST_NAME: Bioassays on Beet Armyworm (BAW), 128-well diet tray assay
# Format: in vivo
# TEST_SETTINGS: Spodoptera exigua, 168 h, read-out: BAW Rating

| COMPOUND | pest or weed control at 50 µg/cm2 |
| --- | --- |
| FC(F)(F)C(/C=C/c1ccc(-n2cncn2)c(Br)c1)c1cc(Cl)cc(Cl)c1 (centres unmarked) [DC47] | 50 to 100% |

For BAW (Spodoptera exigua), give pest or weed control at 50 µg/cm2 of the listed compound: O=C(CC(F)(F)F)NCc1ccc(/C=C\C(c2cc(Cl)c(Cl)c(Cl)c2)C(F)(F)F)cc1 (centres unmarked) [CC54]
50 to 100%

----------
# Tested on: BAW (Spodoptera exigua)
# TEST_NAME: Bioassays on Beet Armyworm (BAW), 128-well diet tray assay
# Format: in vivo
# TEST_SETTINGS: Spodoptera exigua, 168 h, read-out: BAW Rating
Catalogue of pest or weed control at 50 µg/cm2 values

Recorded pest or weed control at 50 µg/cm2, per entry:
| COMPOUND | MEASURED_TARGET | pest or weed control at 50 µg/cm2 |
| --- | --- | --- |
| O=C(NCc1ccc(/C=C/C(c2cc(Cl)cc(Cl)c2)C(F)(F)F)cc1Cl)C1CC1 (stereo not shown) | BAW (Spodoptera exigua) | 50 to 100% |
| CCNC(=O)NCc1ccc(/C=C/C(c2cc(Cl)cc(Cl)c2)C(F)(F)F)cc1Cl (stereo not shown) | BAW (Spodoptera exigua) | 0 to 50% |
| N#Cc1cc(/C=C\C(c2cc(Cl)c(F)c(Cl)c2)C(F)(F)F)ccc1-n1cncn1 (stereo not shown) | BAW (Spodoptera exigua) | 50 to 100% |

Then there is this compound:
Provide one value: measured pest or weed control at 50 µg/cm2 of CCc1cc(/C=C/C(c2cc(Cl)c(F)c(Cl)c2)C(F)(F)F)ccc1C(=O)NCc1ccc(Cl)nc1 (stereo not shown)
50 to 100%

----------
Measured pest or weed control at 50 µg/cm2, listed per entry for reference.
# System: BAW (Spodoptera exigua)
# TEST_NAME: Bioassays on Beet Armyworm (BAW), 128-well diet tray assay
# Type: in vivo
# TEST_SETTINGS: Spodoptera exigua, 168 h, read-out: BAW Rating

Consider the following illustrative entries.
| COMPOUND | MEASURED_TARGET | VALUE_MEASURED |
| --- | --- | --- |
| O=C(CNC(=O)c1ccc(/C=C/C(c2cc(Cl)c(Cl)c(Cl)c2)C(F)(F)F)cc1Cl)NCC(F)(F)F (stereo not shown) | BAW (Spodoptera exigua) | 50 to 100% |
| O=C(NCc1ccc(/C=C/C(c2cc(Cl)cc(Cl)c2)C(F)(F)F)cc1)C1CC1 (stereo not shown) | BAW (Spodoptera exigua) | 50 to 100% |

Report pest or weed control at 50 µg/cm2, nothing else, for this compound: Cc1cc(/C=C/C(c2cc(Cl)cc(Cl)c2)C(F)(F)F)ccc1C(=O)NCc1cnc(Cl)s1 (stereo not shown)
50 to 100%

Return the recorded pest or weed control at 50 µg/cm2 value; entry: O=C(NC1CS(=O)(=O)C1)c1ccc(/C=C/C(c2cc(Cl)cc(Cl)c2)C(F)(F)F)cc1F (stereo not shown)
50 to 100%
